Reference source: ChEMBL document CHEMBL1158526

# method: Octanol-phosphate buffered saline partition coefficient, log D at pH 7.4
# Format: physicochemical
readout.kind: logD
I'd appreciate a reply containing only the number, no unit.

logD in this record for "COc1cc(C2=C(c3c[nH]c4ccccc34)C(=O)NC2=O)cc(OC)c1O[11CH3]" : 1.99

---

# IC50 listing for each entry below
# tested.on: Vascular endothelial growth factor receptor 3 (Homo sapiens, UniProt P35916)
# Sequence (P35916 whole entry): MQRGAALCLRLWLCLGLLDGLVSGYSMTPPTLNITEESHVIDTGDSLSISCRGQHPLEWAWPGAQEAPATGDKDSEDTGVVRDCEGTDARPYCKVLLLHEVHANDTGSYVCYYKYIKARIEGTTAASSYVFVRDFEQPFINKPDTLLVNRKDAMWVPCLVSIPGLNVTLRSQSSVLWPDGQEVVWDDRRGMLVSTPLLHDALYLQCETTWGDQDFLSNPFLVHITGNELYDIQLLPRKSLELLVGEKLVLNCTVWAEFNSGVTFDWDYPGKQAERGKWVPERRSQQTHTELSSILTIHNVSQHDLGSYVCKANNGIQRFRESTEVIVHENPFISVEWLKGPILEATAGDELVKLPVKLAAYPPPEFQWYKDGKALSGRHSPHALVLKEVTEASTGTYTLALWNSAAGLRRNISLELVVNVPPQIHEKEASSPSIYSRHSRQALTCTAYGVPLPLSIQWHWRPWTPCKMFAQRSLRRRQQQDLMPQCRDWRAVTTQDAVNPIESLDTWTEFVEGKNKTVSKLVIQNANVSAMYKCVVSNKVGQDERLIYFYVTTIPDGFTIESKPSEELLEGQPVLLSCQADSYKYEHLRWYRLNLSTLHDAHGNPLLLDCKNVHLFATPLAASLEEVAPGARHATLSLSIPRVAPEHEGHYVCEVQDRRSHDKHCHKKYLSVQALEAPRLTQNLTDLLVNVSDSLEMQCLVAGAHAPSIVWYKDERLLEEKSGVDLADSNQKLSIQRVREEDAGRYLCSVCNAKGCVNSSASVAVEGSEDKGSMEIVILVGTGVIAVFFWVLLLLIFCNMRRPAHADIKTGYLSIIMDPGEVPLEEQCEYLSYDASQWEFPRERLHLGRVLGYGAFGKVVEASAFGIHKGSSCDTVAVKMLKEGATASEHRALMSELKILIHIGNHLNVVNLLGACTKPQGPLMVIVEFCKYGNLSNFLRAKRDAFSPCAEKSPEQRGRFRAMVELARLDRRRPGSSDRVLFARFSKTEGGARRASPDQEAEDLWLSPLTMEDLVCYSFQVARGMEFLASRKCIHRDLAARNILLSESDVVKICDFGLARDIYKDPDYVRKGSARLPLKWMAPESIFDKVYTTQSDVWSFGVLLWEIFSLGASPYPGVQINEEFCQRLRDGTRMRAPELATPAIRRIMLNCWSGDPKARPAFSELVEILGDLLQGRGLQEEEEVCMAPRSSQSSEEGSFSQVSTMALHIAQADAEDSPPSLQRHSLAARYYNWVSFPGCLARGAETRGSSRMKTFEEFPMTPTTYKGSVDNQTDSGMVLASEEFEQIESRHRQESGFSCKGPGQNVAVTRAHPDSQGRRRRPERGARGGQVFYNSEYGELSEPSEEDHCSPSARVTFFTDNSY
Kindly provide the numeric value in nM only, without the unit symbol.

Below are worked cases with known answers.
{"columns": ["record.smiles", "readout.kind", "endpoint.result"],
 "data": [
  ["COc1cc(C2=C(c3c[nH]c4ccc(I)cc34)C(=O)NC2=O)cc(OC)c1OC", "IC50", 29.5],
  ["COc1cc(C2=C(c3c[nH]c4ccc(F)cc34)C(=O)NC2=O)cc(OC)c1OC", "IC50", 66]
]}

Value of IC50 reported for the molecule "COc1cc(C2=C(c3c[nH]c4ccc(Br)cc34)C(=O)NC2=O)cc(OC)c1OC" is 21

---

Vascular endothelial growth factor receptor 1 (Homo sapiens, UniProt P17948): recorded pIC50 for assorted molecules
Sequence (P17948 whole entry): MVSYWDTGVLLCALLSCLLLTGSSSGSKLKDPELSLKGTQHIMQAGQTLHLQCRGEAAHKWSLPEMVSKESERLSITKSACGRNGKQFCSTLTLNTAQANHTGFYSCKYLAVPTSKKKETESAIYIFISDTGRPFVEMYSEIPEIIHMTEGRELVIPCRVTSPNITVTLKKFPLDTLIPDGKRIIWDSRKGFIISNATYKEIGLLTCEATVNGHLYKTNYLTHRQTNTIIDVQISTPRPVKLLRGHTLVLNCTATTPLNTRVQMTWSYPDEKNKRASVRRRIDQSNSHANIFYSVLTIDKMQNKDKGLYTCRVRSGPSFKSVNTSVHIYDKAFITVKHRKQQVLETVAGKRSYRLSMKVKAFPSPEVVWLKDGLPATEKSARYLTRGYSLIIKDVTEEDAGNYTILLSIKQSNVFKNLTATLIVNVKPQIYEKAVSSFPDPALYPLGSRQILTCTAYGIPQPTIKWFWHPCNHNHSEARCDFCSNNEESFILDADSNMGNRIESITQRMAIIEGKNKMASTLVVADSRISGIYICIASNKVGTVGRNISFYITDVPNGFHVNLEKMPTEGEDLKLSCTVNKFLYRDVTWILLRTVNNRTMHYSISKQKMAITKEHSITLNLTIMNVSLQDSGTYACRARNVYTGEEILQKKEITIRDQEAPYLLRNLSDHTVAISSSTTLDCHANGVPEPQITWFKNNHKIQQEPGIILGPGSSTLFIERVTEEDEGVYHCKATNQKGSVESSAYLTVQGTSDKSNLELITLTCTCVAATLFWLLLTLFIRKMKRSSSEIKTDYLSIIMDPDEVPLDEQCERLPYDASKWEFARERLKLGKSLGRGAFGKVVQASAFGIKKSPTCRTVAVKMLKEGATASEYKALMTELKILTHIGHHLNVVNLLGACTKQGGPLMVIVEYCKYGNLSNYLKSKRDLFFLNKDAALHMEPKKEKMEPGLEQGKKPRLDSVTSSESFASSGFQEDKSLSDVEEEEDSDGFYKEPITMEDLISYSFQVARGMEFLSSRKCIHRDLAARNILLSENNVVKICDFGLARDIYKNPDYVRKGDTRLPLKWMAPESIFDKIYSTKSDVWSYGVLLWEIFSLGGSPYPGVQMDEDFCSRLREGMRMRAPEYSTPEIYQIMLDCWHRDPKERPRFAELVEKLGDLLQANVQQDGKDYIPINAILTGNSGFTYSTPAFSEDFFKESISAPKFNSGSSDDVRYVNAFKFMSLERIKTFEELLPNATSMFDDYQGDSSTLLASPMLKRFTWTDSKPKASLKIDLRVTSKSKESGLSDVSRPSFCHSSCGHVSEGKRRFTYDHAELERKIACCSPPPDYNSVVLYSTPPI
Friendly reminder that pIC50 comes from taking -log10 of the concentration in mol/L.

{"columns": ["record.smiles", "tested.on", "pIC50"],
 "data": [
  ["COc1cc(C2=C(c3c[nH]c4ccc(Br)cc34)C(=O)NC2=O)cc(OC)c1OC", "Vascular endothelial growth factor receptor 1 (Homo sapiens, UniProt P17948)", 7.14],
  ["COc1cc(C2=C(c3c[nH]c4ccc(I)cc34)C(=O)NC2=O)cc(OC)c1OC", "Vascular endothelial growth factor receptor 1 (Homo sapiens, UniProt P17948)", 7.16]
]}

Now consider the entry below.
Kindly note: Vascular endothelial growth factor receptor 1 (Homo sapiens, UniProt P17948), "COc1cc(C2=C(c3c[nH]c4ccc(F)cc34)C(=O)NC2=O)cc(OC)c1OC" , pIC50 value reported: 6.82
